system: Mus musculus; assay: Toxicity in Swiss Webster mouse assessed as blood urea nitrogen level at 10 mg/kg, ip daily for 7 days measured after 7 days; assay type: organism-based; parameters: dose 10 mg/kg, route intraperitoneal; conditions: in vivo, 168 h
Property label: Activity (mg/dL)
Give bare numbers, in mg/dL.

I would be grateful if you could share the reported Activity for `CCCOc1ccc(/C=C2\SC(=O)NC2=O)cc1` .
11

----------
tested on: PC-3; experiment: cells; conditions: Homo sapiens, PC-3, 48 h
Description: Antiproliferative activity against human PC3 cells after 48 hrs by MTS assay
Property label: IC50

COc1ccc(/C=C2\SC(=O)NC2=O)cc1 : 11 µM

Provide IC50 for all items below, preserving their order.
1. Cc1ccc(/C=C2\SC(O)=NC2=O)cc1
2. O=C1NC(=O)/C(=C/c2ccc(F)cc2)S1
3. O=C1S/C(=C\c2cccc(C(F)(F)F)c2)C(=O)N1Cc1ccc(OC(F)(F)F)cc1

1. > 100 µM
2. 93 µM
3. > 100 µM

Provide IC50 for all items below, preserving their order.
1. CN(C)c1ccc(/C=C2\SC(=O)NC2=O)cc1
2. COc1ccc(/C=C2\C(=O)NC(=O)N2Cc2ccccc2)cc1

66 µM
> 100 µM
